# TARGET_OF_ASSAY: T1, human GARP-TGF-β1 complex (recombinant complex of human GARP and latent human TGF-β1) (human, UniProt Q14392 20-627; P01137 30-278; P01137 279-390)
# T1 construct: also called huGARP-TGF-β1; hGARP-TGF-β1
# EXPERIMENTAL_PROTOCOL: SPR Biacore T200, CM5 chip coated with GARP-TGF-β1 complex at 150 RU
Measured pKd by item
# log scale: pKd equals minus log10 of the concentration in mol/L

Consider the worked cases shown below.
39B6-AYE (ARGX-115), IgG4 S228P (antibody, V domains shown) VH: QVQLVQPGAEVRKPGASVKVSCKASGYRFTSYYIDWVRQAPGQGLEWMGRIDPEDAGTKYAQKFQGRVTMTADTSTSTVYVELSSLRSEDTAVYYCARYEWETVVVGDLMYEYEYWGQGTLVTVSS VL: DIQMTQSPSSLSASVGDRVTITCQASQSISSYLAWYQQKPGQAPKILIYGASRLKTGVPSRFSGSGSGTSFTLTISSLEPEDAATYYCQQYASVPVTFGQGTKVEIKR; 9.12
39B6-ANK IgG4 S228P (antibody, V domains shown, Variant of 39B6-A in IgG4 S228P format; Positions are Kabat-type) VH: QVQLVQPGAEVRKPGASVKVSCKASGYRFTSYYIDWVRQAPGQGLEWMGRIDPEDAGTKYAQKFQGRVTMTADTSTSTVYVELSSLRSEDTAVYYCARNKWETVVVGDLMYEYEYWGQGTLVTVSS VL: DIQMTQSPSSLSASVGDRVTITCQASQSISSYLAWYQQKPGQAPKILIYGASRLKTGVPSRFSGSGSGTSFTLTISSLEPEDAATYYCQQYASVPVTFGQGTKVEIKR; 9.06
LHG-10.6 monoclonal antibody (17H5 mAb), isotype not stated (antibody, V domains shown) VH: EVQLVQPGAELRNSGASVKVSCKASGYRFTSYYIDWVRQAPGQGLEWMGRIDPEDGGTKYAQKFQGRVTFTADTSTSTAYVELSSLRSEDTAVYYCARNEWETVVVGDLMYEYEYWGQGTQVTVSS VL: DIQMTQSPSSLSASLGDRVTITCQASQSISSYLAWYQQKPGQAPNILIYGASRLKTGVPSRFSGSGSGTSFTLTISGLEAEDAGTYYCQQYASVPVTFGQGTKVELK; 9.29
39B6-AEE IgG4 S228P (antibody, V domains shown) VH: QVQLVQPGAEVRKPGASVKVSCKASGYRFTSYYIDWVRQAPGQGLEWMGRIDPEDAGTKYAQKFQGRVTMTADTSTSTVYVELSSLRSEDTAVYYCAREEWETVVVGDLMYEYEYWGQGTLVTVSS VL: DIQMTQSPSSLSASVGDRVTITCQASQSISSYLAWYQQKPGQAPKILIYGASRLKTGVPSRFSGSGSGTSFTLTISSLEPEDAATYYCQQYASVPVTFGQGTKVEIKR; 8.24
39B6-AVE IgG4 S228P (antibody, V domains shown, Variant of 39B6-A in IgG4 S228P format; Positions are Kabat-type) VH: QVQLVQPGAEVRKPGASVKVSCKASGYRFTSYYIDWVRQAPGQGLEWMGRIDPEDAGTKYAQKFQGRVTMTADTSTSTVYVELSSLRSEDTAVYYCARVEWETVVVGDLMYEYEYWGQGTLVTVSS VL: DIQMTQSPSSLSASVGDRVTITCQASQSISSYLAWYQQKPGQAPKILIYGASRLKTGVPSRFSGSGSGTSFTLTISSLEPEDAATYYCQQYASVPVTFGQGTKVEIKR; 9.05

// switching to the query binder
For record 39B6-ANR IgG4 S228P (antibody, V domains shown, Variant of 39B6-A in IgG4 S228P format; Positions are Kabat-type) VH: QVQLVQPGAEVRKPGASVKVSCKASGYRFTSYYIDWVRQAPGQGLEWMGRIDPEDAGTKYAQKFQGRVTMTADTSTSTVYVELSSLRSEDTAVYYCARNRWETVVVGDLMYEYEYWGQGTLVTVSS VL: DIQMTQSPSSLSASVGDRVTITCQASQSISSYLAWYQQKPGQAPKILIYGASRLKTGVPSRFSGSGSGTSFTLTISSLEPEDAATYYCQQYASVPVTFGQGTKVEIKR the listed pKd is 9.05
